ASSAY DETAILS: SPR binding of NVA1309 to immobilized P4-derived peptides, RU400 as % of peptide P4
RECORDED CONDITIONS: mean of 0.5, 1 and 2 mM NVA1309; P4=100%; Example 7
Provide the recorded % BINDING (RU400) mean for the entries that follow.
Output spec: scalar in %, unitless text.

Enquiry: Look up % BINDING (RU400) mean: IKAKLEETITQAGGGC (Peptide P4, carboxy-terminal VGGC_a2 region (II) + GGGC anchor) [carboxy-terminal VGGC_α2 region (II) + GGGC anchor, positive control]
Return: 100

Enquiry: Quick check: % BINDING (RU400) mean of IKAALEETITQAGGGC (Peptide P14, P4 analogue with Lysine in position 4 (K) substituted by Alanine (A) + GGGC anchor) [P4 analogue, K4 A-substituted + GGGC anchor] ?
Return: 6

Enquiry: What does the data say about its % BINDING (RU400) mean? Entry: IKAKGGGC (Peptide P15, P4 analogue containing only the amino-terminal part of P4 + GGGC anchor)
Return: 23

Enquiry: Bench note: what % BINDING (RU400) mean did IAAKLEETITQAGGGC (Peptide P13, P4 analogue with Lysine in position 2 (K) substituted by Alanine (A) + GGGC anchor) [P4 analogue, K2 A-substituted + GGGC anchor] show?
Return: 104

* * *

Answer each item with its documented % BINDING (RU400) 0.5 mM.
ASSAY DETAILS: SPR binding of NVA1309 to immobilized P4-derived peptides, RU400 as % of peptide P4
RECORDED CONDITIONS: NVA1309 0.5 mM; P4 RU400=100%; P4 scanning (Example 6)
Procedure: This peptide was covalently coupled via the carboxy-terminal cysteine to the surface (FC2) of a Biacore CM5 optical sensor chip as described in Example 4 following the Biacore thiol coupling procedure. Compound NVA1309 was injected as analyte at increasing concentrations and the binding reaction was monitored by generation of real time sensorgrams, presented as subtracted curves from the blank FC1 dextran reference surface (FIGS. 14A & 14B). […]
Answer in %, number only, no unit symbol.

Enquiry: For ETITQARYSETLKPGGGC (Peptide P6, carboxy-terminal VGGC_a2 region (IV) + GGGC anchor) [C-terminal P4 extension + GGGC anchor] , what is its reported % BINDING (RU400) 0.5 mM?
Return: 9

Enquiry: If you can, please state the reported % BINDING (RU400) 0.5 mM value of AQTITEELKAKIGGGC (Peptide P8, Inverse peptide P4 + GGGC anchor) .
Return: 3

Enquiry: Which measured % BINDING (RU400) 0.5 mM value corresponds to IKAKLEEAIAQAGGGC (Peptide P12, P4 analogue - polar side chains A-substituted + GGGC anchor) ?
Return: 14

Enquiry: Please report the recorded % BINDING (RU400) 0.5 mM for IAAALEETITQAGGGC (Peptide P10, P4 analogue - positively charged side chains A-substituted + GGGC anchor) .
Return: 4

Enquiry: GET /values?readout=% BINDING (RU400) 0.5 mM&item= IKAKLAATITQAGGGC (Peptide P11, P4 analogue - negatively charged side chains A-substituted + GGGC anchor)
Return: 23

Enquiry: Data request, read-out % BINDING (RU400) 0.5 mM, for LRVRIDDSLSNVGGGC (Peptide P9, P4 analogue - all aa substituted by most similar ones + GGGC anchor)
Return: 1

Enquiry: Look up % BINDING (RU400) 0.5 mM: IKAKLEETITQAGGGC (Peptide P4, carboxy-terminal VGGC_a2 region (II) + GGGC anchor) [carboxy-terminal VGGC_α2 region (II) + GGGC anchor, positive control]
Return: 100
